experiment: A CellTox Green Cytotoxicity Assay to monitor cytotoxicity in HepG2 cells - 40 hour (AID 1224879); settings: CellTox Green fluorescence; series mostly up to 76.8 µM; note: nearly all actives have a fitted effect of over 40% in size
Inconclusive results are not listed. Active and inactive are the calls of the source. Calls come from the whole dose curve; as a rule, active = well fitted activation curve with a large enough effect in the repeat runs; inconclusive = weak or mixed curves; inactive = flat fitted curve, though single readings scatter.
A correct response names exactly one class from 1 = active, 0 = inactive

Field: example entries. Status: answers known.
>  <compound>
Oc1ccc2ccc3cccc4ccc1c2c34

>  <answer-label>
1

$$$$
>  <compound>
N#Cc1ccccc1N

>  <answer-label>
0

$$$$
>  <compound>
CC(Cl)CN(C)C (stereo not given)

>  <answer-label>
0

$$$$
>  <compound>
Oc1ccccc1Br

>  <answer-label>
0

$$$$
>  <compound>
N#C/C=C/c1ccccc1

>  <answer-label>
0

$$$$

Please share the test call associated with N#C/C=C/C#N . 0

Follow-up item: CCCN(CCC)c1c([N+](=O)[O-])cc(S(N)(=O)=O)cc1[N+](=O)[O-] 1

Follow-up item: BrC(Br)Br 0

Follow-up item: N#CCCC(Br)(C#N)CBr (stereo not given) 1

Follow-up item: Oc1ccc(C(=C(Cl)Cl)c2ccc(O)cc2)cc1 0

Follow-up item: CCCCCCCCCC[N+](C)(C)CCCCCCCCCC 1

Follow-up item: CCCCCCCCc1ccc(O)cc1 1
